Every entry's value here was drawn from the supplement of paper PMC9732359.

Quick reference: protein stability index of the listed items.
- measurement protocol: protein stability index of a GFP-peptide fusion (yeast GPS) (PSI 1-4); higher = more stable; sorted into four equal gates, so the index is relative within each strain
- condition parameters: doa10∆
Form rule: numeric answer, no unit written next to it.

Here are 3 sequences together with their reported answers.
construct sequence: PTVDEQRQYKVQLLLHI [SNF11]
protein stability index: 1.8
//
construct sequence: EKNEKEREIKRRKFDPS [UBP6]
protein stability index: 3.3
//
construct sequence: ADVFRRCLVAVIQQDKY [SRP72]
protein stability index: 1.6

# input for lookup
Ask | Name the reported protein stability index value associated with the sequence RKASCIWLLSYIQYLGH [ECM29]
Reply | 1.88

---

- measurement protocol: protein stability index of a GFP-peptide fusion (yeast GPS) (PSI 1-4); higher = more stable; sorted into four equal gates, so the index is relative within each strain
- condition parameters: doa10∆
reported endpoint: protein stability index
Give a plain numeric answer without units written out.

Please review the following examples before continuing.
construct sequence: ENTVGLISGAGANPRVL [RPN10]
protein stability index: 1.72

construct sequence: LRNLHMKRMVAQWERSK [SNF12]
protein stability index: 2.88

construct sequence: DDHNGEVWSVSWNLTGT [YGL100W/SEH1]
protein stability index: 2.73

construct sequence: QGDGLLTKLQKYGAAVR [RPN7]
protein stability index: 2.93

construct sequence: WDLSVEDALYLGKRSIL [PRE2]
protein stability index: 3.4

Ask | Look up protein stability index: NAQQTFHIDHTKPSDLT [RPO21]
Reply | 2.85

Ask | Look at this sequence and give its reported protein stability index. VRNFKEAAKLLVDSLAT [RPN7]
Reply | 2.23

Ask | Value lookup for protein stability index; key = GSKSDGSAATSGFEFSK [RPN1]
Reply | 2.7

---

- measurement protocol: protein stability index of a GFP-peptide fusion (yeast GPS) (PSI 1-4); higher = more stable; sorted into four equal gates, so the index is relative within each strain
- condition parameters: doa10∆
Label label 1 when protein stability index is at or above 3; anything below gets label 0.

construct sequence: FGKKRLDLAGPLLAQLF [RPB2]
label value: label 0

Ask | Identify whether the reported protein stability index of the following sequence is 3 or greater: ALLIEVFTALLRLFINE [ITC1]
Reply | label 0

Ask | Would you say GSRKVAGILRGYDIFLN [SMX2] shows protein stability index at minimum 3?
Reply | label 0

Ask | Evaluate LDYQETYVEELFPIVKK [YJL039C/NUP192] : protein stability index at minimum 3?
Reply | label 0

Ask | Determine whether this sequence has protein stability index no lower than 3: AVPAATPANTNNSTSNA [SWI1]
Reply | label 0

Ask | Could you verify whether the entry LNDRQEEISRLQRDLIQ [YIL149C/MLP2] shows protein stability index of no less than 3?
Reply | label 0

Ask | Exam item: decide whether the reported protein stability index for GEEDAVDLLLEIESIDK [RPN1] is at least 3.
Reply | label 1

Ask | Determine whether measured protein stability index meets or exceeds 3 for VTVVDTPPVVVVGVVGY [RPL3]
Reply | label 0

Ask | hey, is protein stability index for this one >= 3? VPRKFKHFIQGGSFGNR [RPL7A]
Reply | label 1

Ask | Decide: protein stability index of EIKVGKQRFQGCNNLIK [ARP9] >= 3?
Reply | label 0

Ask | Determine whether measured protein stability index meets or exceeds 3 for YLLASLKDSKDFDESLK [RPN9]
Reply | label 0

Ask | Determine whether this sequence has protein stability index no lower than 3: GLTNWAAAYATGLLIAR [RPL5]
Reply | label 0

Ask | Would you say NRRLFKKCIDFFEMLIS [RRI2] shows protein stability index at minimum 3?
Reply | label 0

---

- measurement protocol: protein stability index of a GFP-peptide fusion (yeast GPS) (PSI 1-4); higher = more stable; sorted into four equal gates, so the index is relative within each strain
- condition parameters: doa10∆
Hi, to clarify the labels: fulfilled covers protein stability index from 3 upward, not fulfilled covers anything below 3.

Examples from the recorded data:
construct sequence: EKVTIAPLVLLSALDHY [RPN8]
label value: not fulfilled

construct sequence: DDLALPYQHPPNIFPNL [ITC1]
label value: fulfilled

construct sequence: TYVEELFPIVKKHGKTD [YJL039C/NUP192]
label value: fulfilled

construct sequence: VCAKLFGNIQKVVNFWL [RPO21]
label value: not fulfilled

construct sequence: NVEESVSKADILLSHHR [POP5]
label value: fulfilled

Ask | Tell me whether protein stability index is at least 3 here: DRKIEFPPPSVAARAEI [RPT6]
Reply | not fulfilled

Ask | Hi, just wondering whether KISEDPVKALNECIAST [SNF12] shows protein stability index of 3 or higher.
Reply | not fulfilled

Ask | Hi team, for LLWLVLIHPENFTCNRK [SWI1] , is the recorded protein stability index at or above 3?
Reply | not fulfilled

Ask | protein stability index >= 3 for RARLKGKEGRIRGNLMG [RPO21] ?
Reply | fulfilled

Ask | Hi, just wondering whether GSAINHHRIFDSSAHFK [YMR129W/POM152] shows protein stability index of 3 or higher.
Reply | not fulfilled

Ask | Does protein stability index meet or surpass 3 for TIDWVEAGLQLCRQGHN [PRP8] ?
Reply | not fulfilled

Ask | Hi team, for QIRACKDLKHIIYYKFN [PRP8] , is the recorded protein stability index at or above 3?
Reply | not fulfilled

Ask | hey, is protein stability index for this one >= 3? SFLFSAIPLQQVLSQSA [SWI1]
Reply | not fulfilled

---

- measurement protocol: protein stability index of a GFP-peptide fusion (yeast GPS) (PSI 1-4); higher = more stable; sorted into four equal gates, so the index is relative within each strain
- condition parameters: doa10∆
Overview of reported protein stability index across a group of sequences:
Kindly provide the number alone.

Ask | So what's the measured protein stability index for this one? QLAPSSVDPQSSSTQNV [DIS3]
Reply | 2.99

---

- measurement protocol: protein stability index of a GFP-peptide fusion (yeast GPS) (PSI 1-4); higher = more stable; sorted into four equal gates, so the index is relative within each strain
- condition parameters: doa10∆
Would you please tag the item yes (1) when its protein stability index is 2 or above, and no (0) when it is below?

construct sequence: CVVLGCERRSTLKLQDT [PRE6]
label value: no (0)

Ask | For this sequence, is measured protein stability index 2 or higher? QLLTPGSKISSNDLDKF [YGL172W/NUP49]
Reply | yes (1)

Ask | Has WQYIVIDEAHRIKNEQS [ISW2] a recorded protein stability index greater than or equal to 2?
Reply | no (0)

Ask | # check: protein stability index of IASDGSYVNYRHMALLV [RPO21] is greater than or equal to 2
Reply | no (0)

Ask | Reported protein stability index reaches at least 2 for AELDDCRGVSENVILGQ [RPO21] ?
Reply | yes (1)

Ask | Threshold query (protein stability index >= 2) on VECTISILRKSSPEEPF [SNF12]
Reply | no (0)

Ask | Decide: protein stability index of NIDETSDEVSRGIPRLS [SMC4] >= 2?
Reply | yes (1)

---

- measurement protocol: protein stability index of a GFP-peptide fusion (yeast GPS) (PSI 1-4); higher = more stable; sorted into four equal gates, so the index is relative within each strain
- condition parameters: doa10∆
Reported values of protein stability index for individual entries
# print the numeric value only

Use these answered entries as a reference point.
construct sequence: LDGELDFDDFLKLGLVE [RET1]
reading: 3.36

construct sequence: QIFVRGSQIKFIVVPDL [SMD3]
reading: 1.8

construct sequence: QTKENKRCVGVILGDAN [RPN8]
reading: 2.89

Ask | Please look up its protein stability index: FHTSFSAVVGPNGSGKS [SMC4]
Reply | 3.09

Ask | Tell me the measured protein stability index of MKRMVAQWERSKLSQEF [SNF12] , please.
Reply | 3.23

Ask | So what's the measured protein stability index for this one? GYDKSGAHLLEFQPSGN [PRE5]
Reply | 2.68

Ask | Given the entry KSGTSHDAIFSIYKYIH [SNF12] , report its measured protein stability index.
Reply | 2.51

Ask | Find the recorded protein stability index belonging to KISGGNDKQGFPMKQGV [RPS6A] and report it.
Reply | 2.53

Ask | protein stability index for GDTVRILDTSQSESRQK [SNU114] ?
Reply | 2.81

Ask | Could you share which protein stability index value was measured for CPEEFAESMCQELELPG [SNF5] ?
Reply | 3.25

Ask | Using the record for IVVMDCFNLPVVGTETR [RRI1] , report its protein stability index.
Reply | 2.24

Ask | Look up protein stability index for this sequence: TDENTPSADGADKKDDS [ITC1]
Reply | 3.04

Ask | What measured protein stability index goes with VKGDLLQEAIDFAQKEI [PRE10] ?
Reply | 2.9

Ask | State the recorded protein stability index for this entry: PIPVQGEIEIKPNEEEE [RPN13]
Reply | 2.45

Ask | // returns reported protein stability index for input VLILLHAERDLALAETL [SRP68]
Reply | 2.3
